Biological target: Sulfonylurea receptor 2, Kir6.2 (Homo sapiens, UniProt O60706+Q14654)
Sequence (Q14654 whole entry): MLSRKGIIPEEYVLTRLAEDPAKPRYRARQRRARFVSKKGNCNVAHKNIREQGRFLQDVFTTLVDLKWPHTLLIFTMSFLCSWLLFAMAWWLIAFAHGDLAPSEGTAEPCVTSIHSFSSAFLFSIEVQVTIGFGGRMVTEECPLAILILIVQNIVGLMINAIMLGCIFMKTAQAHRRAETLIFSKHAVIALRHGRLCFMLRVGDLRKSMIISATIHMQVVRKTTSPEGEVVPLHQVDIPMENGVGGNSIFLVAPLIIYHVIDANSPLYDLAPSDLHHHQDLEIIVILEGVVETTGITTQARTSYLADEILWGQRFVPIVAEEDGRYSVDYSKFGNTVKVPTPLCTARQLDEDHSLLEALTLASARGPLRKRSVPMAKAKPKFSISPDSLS
Sequence (O60706 whole entry): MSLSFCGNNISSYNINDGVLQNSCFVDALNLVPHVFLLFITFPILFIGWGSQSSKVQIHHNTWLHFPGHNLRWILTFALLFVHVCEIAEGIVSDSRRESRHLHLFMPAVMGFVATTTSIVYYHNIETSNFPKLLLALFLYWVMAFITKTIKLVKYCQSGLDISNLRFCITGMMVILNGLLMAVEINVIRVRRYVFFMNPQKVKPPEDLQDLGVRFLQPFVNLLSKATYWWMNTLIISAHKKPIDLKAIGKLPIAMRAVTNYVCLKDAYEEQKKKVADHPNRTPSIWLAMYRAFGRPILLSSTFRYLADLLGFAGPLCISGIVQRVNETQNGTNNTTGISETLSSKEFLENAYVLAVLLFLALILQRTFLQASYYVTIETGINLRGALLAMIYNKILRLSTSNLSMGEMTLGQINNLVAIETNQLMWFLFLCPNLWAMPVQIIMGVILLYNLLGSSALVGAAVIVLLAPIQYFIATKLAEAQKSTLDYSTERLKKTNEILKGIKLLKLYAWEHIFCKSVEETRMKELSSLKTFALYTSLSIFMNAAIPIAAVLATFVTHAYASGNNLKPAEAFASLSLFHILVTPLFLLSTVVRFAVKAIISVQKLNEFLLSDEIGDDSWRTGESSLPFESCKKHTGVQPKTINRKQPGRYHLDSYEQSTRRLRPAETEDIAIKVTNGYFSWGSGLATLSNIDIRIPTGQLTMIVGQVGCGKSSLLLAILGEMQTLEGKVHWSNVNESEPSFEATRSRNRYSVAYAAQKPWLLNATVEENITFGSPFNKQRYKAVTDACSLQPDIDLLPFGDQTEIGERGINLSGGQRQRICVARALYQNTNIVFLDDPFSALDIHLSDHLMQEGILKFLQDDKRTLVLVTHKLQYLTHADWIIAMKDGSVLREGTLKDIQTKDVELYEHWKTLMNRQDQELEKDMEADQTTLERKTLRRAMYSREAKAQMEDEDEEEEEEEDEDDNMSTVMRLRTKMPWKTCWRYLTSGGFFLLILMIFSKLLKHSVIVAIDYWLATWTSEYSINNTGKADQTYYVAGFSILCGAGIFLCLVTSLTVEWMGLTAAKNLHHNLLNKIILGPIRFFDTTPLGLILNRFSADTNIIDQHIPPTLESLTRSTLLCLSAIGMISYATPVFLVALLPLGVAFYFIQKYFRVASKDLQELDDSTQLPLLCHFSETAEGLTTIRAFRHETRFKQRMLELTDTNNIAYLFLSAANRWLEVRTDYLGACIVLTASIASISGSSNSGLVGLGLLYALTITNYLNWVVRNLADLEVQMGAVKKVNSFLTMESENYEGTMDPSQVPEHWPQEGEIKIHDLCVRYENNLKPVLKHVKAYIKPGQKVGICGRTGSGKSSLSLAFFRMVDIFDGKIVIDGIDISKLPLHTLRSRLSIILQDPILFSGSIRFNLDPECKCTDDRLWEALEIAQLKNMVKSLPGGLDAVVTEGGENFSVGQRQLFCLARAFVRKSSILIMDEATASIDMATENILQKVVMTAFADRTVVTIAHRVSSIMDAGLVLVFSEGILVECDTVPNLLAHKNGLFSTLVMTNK
Experiment: Ability to open human urinary bladder Kir6.2 channel containing SUR2B in Ltk cells by FLIPR assay
Format: functional, cell-based
endpoint.name: EC50 (nM)

CCC[C@H]1OC(O)=C2C1=NC1=C(C(=O)COC1)[C@H]2c1ccc(F)c(Cl)c1 (stereo in doubt; 39a); 3390

(a) C[C@@H]1C2=C(C(=O)N1C)[C@H](c1ccc(F)c(Br)c1)C1=C(O)COCC1=N2 (relative stereo)
(b) CC[C@H]1OCC2=C(C1=O)[C@@H](c1ccc(F)c(Br)c1)C1=C(O)OCC1=N2 (racemic)
Ask: Hi team, can someone confirm which has the larger EC50: a or b ? Thanks. Respond using the label that marks the chosen record.
Result: b

These entries and their values trace back to ChEMBL document CHEMBL1137338.
